B1: TPR t1 (parent)
chain: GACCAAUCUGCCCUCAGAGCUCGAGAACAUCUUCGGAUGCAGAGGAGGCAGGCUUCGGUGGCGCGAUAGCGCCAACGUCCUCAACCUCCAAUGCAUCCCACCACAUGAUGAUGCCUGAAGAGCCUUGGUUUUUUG

Variants of: B1
assay-method-text: polymerase ribozyme fitness, log enrichment relative to wild type (log ratio); higher = more active; in vitro selection for triplet polymerase activity
Class (by polymerase ribozyme fitness (log ratio)) -- low-valued (below -4), mid-valued (-4 to below -2), high-valued (-2 or more)

Prompt line: GET /class?item= C11U C56G U112G
Response line: high-valued

Prompt line: U21A C89U ?
Response line: high-valued

Prompt line: C11U A41U C62U C85A C102U C114G G120C ?
Response line: low-valued

Prompt line: G47U C56U ?
Response line: high-valued

Prompt line: G60A G93C U132A ?
Response line: high-valued

Prompt line: A46U C73U ?
Response line: high-valued

Prompt line: C12U G35A G42U U112C ?
Response line: low-valued

Prompt line: A5U A84G U96C G113U ?
Response line: low-valued

Prompt line: C13A C28G C34A A84C G110C ?
Response line: high-valued

Prompt line: A5G G60C ?
Response line: high-valued

Prompt line: A24U A83U ?
Response line: low-valued

Prompt line: C13G C22U G39U C53G ?
Response line: low-valued

Prompt line: G36C C40A C62U C72U ?
Response line: low-valued

Prompt line: G60A G69U A95U U126A ?
Response line: mid-valued

Prompt line: C31G G35C A43G G110C ?
Response line: low-valued

Prompt line: C8G C80A A90U G128C U129G ?
Response line: low-valued

Prompt line: C88A A105C ?
Response line: mid-valued

Prompt line: U81G G110U G128A ?
Response line: low-valued

Prompt line: C34U C123U ?
Response line: mid-valued

Prompt line: C102U G120C ?
Response line: high-valued

Prompt line: U14A G44C G61U C85G U96C G113U ?
Response line: low-valued

Prompt line: A74C A90C C101G ?
Response line: mid-valued

Prompt line: G69A C104U G120A U133A ?
Response line: high-valued

Prompt line: C8G U78A G113U C115A G120C ?
Response line: mid-valued

Prompt line: U38G C102U ?
Response line: mid-valued

Prompt line: A6C A29U C56U C94A U112G ?
Response line: mid-valued

Prompt line: G42A C56G ?
Response line: high-valued

Prompt line: U7G C88U G93C ?
Response line: high-valued

Prompt line: G48A U54G G110C ?
Response line: low-valued

Prompt line: C3U G117A G120U ?
Response line: mid-valued

Prompt line: C13G G45U G71U C85A ?
Response line: low-valued

Prompt line: G52U C72G ?
Response line: high-valued

Prompt line: G47U U78C ?
Response line: high-valued

Prompt line: C13U G128C ?
Response line: high-valued

Prompt line: C22G C73A ?
Response line: mid-valued

Prompt line: C12U C13U A43G G61A U130G ?
Response line: mid-valued

Prompt line: G69U A105U ?
Response line: high-valued

Prompt line: C20G C62A ?
Response line: low-valued

Prompt line: G127A G128U ?
Response line: mid-valued

Prompt line: C13U G61C A100U A111G G113A ?
Response line: low-valued

Prompt line: A16U C49A C72A ?
Response line: high-valued

Prompt line: C72A C102U ?
Response line: high-valued

Prompt line: C11U G63C C80U ?
Response line: mid-valued

Prompt line: A26G C82A G113A A119U G120C ?
Response line: mid-valued

Prompt line: C13A C56G ?
Response line: mid-valued

Prompt line: G39C C62A ?
Response line: high-valued

Prompt line: G51U U78C ?
Response line: low-valued

Prompt line: C70A C73U A111C ?
Response line: mid-valued

Prompt line: C72U U78C C97U ?
Response line: high-valued

Prompt line: C4U A43C U125A ?
Response line: mid-valued

Prompt line: C3A C8U ?
Response line: high-valued

Prompt line: G57C G110A ?
Response line: high-valued

Prompt line: C31U C49U C104U C115A ?
Response line: low-valued

Prompt line: C31U A66C U78G U106A C123A ?
Response line: mid-valued

Prompt line: C94A G127C ?
Response line: mid-valued

Prompt line: G42C A66U A83U ?
Response line: mid-valued

Prompt line: A29U A46C G117C ?
Response line: low-valued

Prompt line: C76G A95G ?
Response line: high-valued

Prompt line: C12U U59G ?
Response line: high-valued

Prompt line: G36A U81A ?
Response line: high-valued

Prompt line: C15G C40A ?
Response line: mid-valued

Prompt line: C15A A74G U78G C79U G110U ?
Response line: mid-valued

Prompt line: G48C C82A A84C ?
Response line: high-valued

Prompt line: G60A C79U ?
Response line: high-valued

Prompt line: U7G U33G ?
Response line: low-valued

Prompt line: C11G G63U C88A ?
Response line: high-valued

Prompt line: C49U A121C ?
Response line: high-valued

Prompt line: C15U G58A C85A G113U ?
Response line: low-valued

Prompt line: A46C C56U U78A A90G C94U A111C ?
Response line: high-valued

Prompt line: A50U C56G C70U U78C ?
Response line: low-valued

Prompt line: C28A C56U ?
Response line: mid-valued

Prompt line: G10A C104U ?
Response line: high-valued

Prompt line: C73A G127U ?
Response line: high-valued

Prompt line: G63U C104A U133A ?
Response line: mid-valued

Prompt line: C20G G36A A121C ?
Response line: mid-valued

Prompt line: C12A G63C A111U ?
Response line: low-valued

Prompt line: A6U C15A A37C C40G C80U U96G ?
Response line: mid-valued

Prompt line: C28U G93A ?
Response line: high-valued

Prompt line: A6U C8G C13U C20U G51A G61U ?
Response line: low-valued

Prompt line: C8A G69C G110C ?
Response line: low-valued

Prompt line: G19U A50C C98U G110A A121G ?
Response line: low-valued
